# Tested on: Calf thymus DNA
# assay remarks: Inhibitory concentration against ethidium:Calf thymus DNA (1.26:1) binding at pH 7
# Assay type: nucleic-acid assay
# particulars: Bos taurus
measured property: C50

These solved cases illustrate the format of a correct answer.
| smiles string | system under test | endpoint value |
| --- | --- | --- |
| O=C(NCCN1CCCCC1)c1ccc(NCCN2CCCCC2)c2c(O)c3ccccc3nc12 | Calf thymus DNA | 0.28 µM |
| Cn1cc(NC(=O)c2cc(NC(=O)c3cc(NC=O)cn3C)cn2C)cc1C(=O)NCCC(=N)N | Calf thymus DNA | 1.3 µM |
| CN(C)CCNC(=O)c1ccc(NCCN(C)C)c2c(O)c3cc(O)ccc3nc12 | Calf thymus DNA | 0.37 µM |
| CN(C)CCNC(=O)c1ccc(N(C)CCN(C)C)c2c(O)c3ccccc3nc12 | Calf thymus DNA | 0.94 µM |
| COc1ccc2nc3c(C(=O)NCCN(C)C)ccc(NCCN(C)C)c3c(O)c2c1 | Calf thymus DNA | 0.69 µM |
| O=C1c2c(O)ccc(O)c2C(=O)c2c(NCCNCCO)ccc(NCCNCCO)c21 | Calf thymus DNA | 0.037 µM |
| N=C(N)c1ccc(/N=N/Nc2ccc(C(=N)N)cc2)cc1 | Calf thymus DNA | 1.5 µM |
| CN(C)CCNC(=O)c1ccc(NCCN(C)C)c2c(=O)c3ccccc3[nH]c12 | Calf thymus DNA | 0.34 µM |
| c1ccc2nc3ccccc3cc2c1 | Calf thymus DNA | 320 µM |
| CN(C)CCCNC(=O)c1ccc(NCCCN(C)C)c2c(O)c3ccccc3nc12 | Calf thymus DNA | 0.38 µM |

What does the data say about its C50? Entry: O=C(NCCN1CCOCC1)c1ccc(NCCN2CCOCC2)c2c(O)c3ccccc3nc12
3.7 µM

What does the data say about its C50? Entry: CCN(CC)CCNC(=O)c1ccc(NCCN(CC)CC)c2c(O)c3ccccc3nc12
2.3 µM

What does the data say about its C50? Entry: CN(C)CCNC(=O)c1ccc(NCCN(C)C)c2c(O)c3cc([N+](=O)[O-])ccc3nc12
0.17 µM

What does the data say about its C50? Entry: Nc1ccc2c(O)c3ccc(N)cc3nc2c1
630 µM

What does the data say about its C50? Entry: CN(C)CCNC(=O)c1ccc(NCCNCCO)c2c(O)c3ccccc3nc12
0.35 µM
